Target: human SCD5 (Homo sapiens)
Sequence (Q86SK9 1-330): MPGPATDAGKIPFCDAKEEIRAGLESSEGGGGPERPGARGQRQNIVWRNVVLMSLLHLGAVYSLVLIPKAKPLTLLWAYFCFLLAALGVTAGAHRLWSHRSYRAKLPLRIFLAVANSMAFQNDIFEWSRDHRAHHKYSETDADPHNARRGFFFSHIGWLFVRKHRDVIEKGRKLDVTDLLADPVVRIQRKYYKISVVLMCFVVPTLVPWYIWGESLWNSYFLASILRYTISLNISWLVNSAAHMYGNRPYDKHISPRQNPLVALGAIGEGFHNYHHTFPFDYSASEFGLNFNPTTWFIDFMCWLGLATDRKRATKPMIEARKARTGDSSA
Experiment: Yeast growth assay, strain expressing human SCD5 as the sole desaturase (reduced growth as surrogate for SCD inhibition)
Conditions: growth (OD600) after 40 h at 30° C.
The following compounds are listed with their measured IC50 values.

> print(dat)
                                     smiles  measured.property  reading
1  O=C(Nc1ccc(Cc2cccc(F)c2)cn1)c1cc[nH]c(=O)n1               IC50  > 45 µM
2  CN1N=C(C(=O)Nc2ncc(Cc3cccc(F)c3)s2)CCC1=O               IC50  > 45 µM

Read the next record carefully.
The reported value for O=C(Nc1ccc(Cc2cccc(F)c2)cn1)c1cnc2[nH]c(=O)oc2c1 in terms of IC50 is > 45 µM
